Test system: Aβ40 in conditioned medium of cells stably expressing Amyloid Precursor Protein (APP)
Test Details: In vitro BACE cell-based assay (Aβ40 sandwich ELISA)
Condition Notes: Homo sapiens, HEK293, average IC50, HEK cell assay; read-out: HEK cell assay IC50
Experimental: In Vitro BACE Cell-Based Assay The cell-based assay measures inhibition or reduction of Aβ40 in conditioned medium of test compound treated cells expressing amyloid precursor protein. Cells stably expressing Amyloid Precursor Protein (APP) were plated at a density of 40K cells/well in 96 well plates (Costar). […] After 24 h of incubation with the test compounds the supernatant conditioned media was collected and the Aβ 40 levels were determined using a sandwich ELISA. […]
# Lookup of reported pIC50 keyed by entry
FYI, pIC50 means -log10 of a concentration in mol per litre.

Note pIC50 for the compound shown: CC#CCOc1cnc(C(=O)Nc2ccc(F)c([C@]3(CF)C[C@@H](C(F)(F)F)OC(N)=N3)c2)cn1
8.49

// data source = patent US9296734B2
